Assay: acute toxicity, oral administration, solution in Tween
Conditions: mouse, in vivo, souris, voie orale, limits (261-332), read-out: DL50 (the source's name)
measure-name: LD50 (mg/kg)
Report as a plain number; the unit mg/kg is understood.

Given Cc1cccc(C(C)C)c1NCC(O)CNC(C)(C)C (stereo not shown) [COR37 06C] , respond with its LD50.
294

###

Assay: acute toxicity, intraperitoneal administration, solution in Tween
Type: in vivo
Conditions: mouse, in vivo, ip; souris, voie intrapéritonéale, 50 mg/kg, solution dans le Tween; read-out: mortalité
measure-name: mortality (%)
Report as a plain number; the unit % is understood.

Given Cc1ccc(NCC(O)CNC(C)(C)C)cc1 (stereo not shown) [COR37 09C] , respond with its mortality.
0

###

Experiment: acute toxicity, intravenous administration
Conditions: mouse, in vivo, souris, voie intraveineuse, limits (53,8 - 59,5), read-out: DL50 (the source's name)
measure-name: LD50
Give me the value, and tack the unit on after it.

Given CC(C)c1ccccc1NCC(O)CNC(C)(C)C (stereo not shown) [COR37 05C] , respond with its LD50.
56.6 mg/kg

###

Test: acute toxicity, intraperitoneal administration, solution in Tween
Type: in vivo
Conditions: mouse, in vivo, ip; souris, voie intrapéritonéale, 100 mg/kg, solution dans le Tween; read-out: mortalité
measure-name: mortality

Given Cc1ccc(NCC(O)CNC(C)(C)C)cc1 (centres unmarked) [COR37 09C] , respond with its mortality.
100%

Given Cc1cccc(C(C)C)c1NCC(O)CNC(C)(C)C (centres unmarked) [COR37 06C] , respond with its mortality.
0%

###

Test: acute toxicity, oral administration, solution in Tween
Settings: mouse, in vivo, souris, voie orale, 500 mg/kg, solution dans le Tween, read-out: mortalité
measure-name: mortality (%)
Report as a plain number; the unit % is understood.

Given CC(C)c1ccccc1NCC(O)CNC(C)(C)C (centres unmarked) [COR37 05C] , respond with its mortality.
0

Given Cc1cccc(C(C)C)c1NCC(O)CNC(C)(C)C (centres unmarked) [COR37 06C] , respond with its mortality.
100

###

Assay: acute toxicity, oral administration, solution in Tween
Settings: mouse, in vivo, souris, voie orale, 375 mg/kg, solution dans le Tween, read-out: mortalité
measure-name: mortality (%)
Report as a plain number; the unit % is understood.

Given Cc1cccc(C(C)C)c1NCC(O)CNC(C)(C)C (stereo not shown) [COR37 06C] , respond with its mortality.
90

###

Test: acute toxicity, oral administration, solution in Tween
Conditions: mouse, in vivo, souris, voie orale, 300 mg/kg, solution dans le Tween, read-out: mortalité
Method: La toxicité a été déterminée chez la souris. En solution dans le Tween et après administration par voie orale le COR37 05C entraine 0 % de mortalité à 500 mg/kg, 40 % à 750 et 40 % à 1000; le COR37 06C entraine 0 % de mortalité à 100 mg/kg, 10 % à 200, 10 % à 250, 90 % à 375, 100 % à 500 (DL50 = 294 mg/kg (261-332); les COR37 09C, COR37 49C et COR37 50C entrainent 0 % de mortalité à 300 mg/kg. En solution dans le Tween et après administration par voie intrapéritonéale le COR37 05C entraine 0 % de
measure-name: mortality (%)
Report as a plain number; the unit % is understood.

Given Cc1cccc(C(C)C)c1NCC(O)CN(C)C (stereo not drawn) [COR37 50C] , respond with its mortality.
0

Given CC(C)c1ccccc1NCC(O)CN(C)C (stereo not drawn) [COR37 49C] , respond with its mortality.
0

Given Cc1ccc(NCC(O)CNC(C)(C)C)cc1 (stereo not drawn) [COR37 09C] , respond with its mortality.
0

###

Test: acute toxicity, oral administration, solution in Tween
Conditions: mouse, in vivo, souris, voie orale, 100 mg/kg, solution dans le Tween, read-out: mortalité
measure-name: mortality
Give me the value, and tack the unit on after it.

Given Cc1cccc(C(C)C)c1NCC(O)CNC(C)(C)C (stereo not shown) [COR37 06C] , respond with its mortality.
0%

// provenance: patent EP0148096A1
